- TARGET_SYSTEM: T1, hPygo1 PHD finger E349A (human, UniProt Q9Y3Y4 333-402, E349A)
- T1 construct: PHD finger of human Pygo1 with E349A; source: E. coli, purified; not shown: GST, N-terminal, cleaved
- T1 sequence (looked up): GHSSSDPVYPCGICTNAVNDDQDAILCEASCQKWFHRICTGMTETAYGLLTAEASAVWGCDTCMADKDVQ
- PROTOCOL_DESCRIPTION: ITC; protein dialysed into 100 mM NaCl, 25 mM Tris-HCl (pH 8.0), 10 uM ZnCl2, 2 mM beta-mercaptoethanol; histone peptides with free PHD or PHD-HD1 complex; one-site model
- CONDITION_SET: both partners purified
READOUT_LABEL: Kd

>>> reading("ARTKQTARKSTGGKA (peptide, UniProt P68431 2-16, looked up, trimethyl-lysine at K4, histone H3 tail, 15-mer) [H3K4me3 15-mer histone H3 tail peptide]")
"22 µM"

The reported measurements were obtained from paper PMC2726290.
